- Tested on: Enterococcus faecalis
- method: Antibacterial activity against Enterococcus faecalis ATCC 35550 after 24 hrs by broth microdilution method
- Type: functional
- condition.details: ATCC 35550, 24 h
Quick reference for MIC among some compounds
Express your answer in µg/mL, writing the number without its unit.

Previously resolved entries follow.
[[record]]
compound = "CCOC(=O)c1cc(O)c(OCc2cc(=O)oc3cc(Cl)ccc23)c(O)c1"
unit_string = "µg/mL"
result_number = 3.12

[[record]]
compound = "CCOC(=O)C(Cc1ccc(OCc2cc(=O)oc3cc(C)ccc23)cc1)NC(=O)c1ccccc1 (configuration not stated)"
unit_string = "µg/mL"
result_number = 0.8

[[record]]
compound = "CCOC(=O)c1cc(O)c(OCc2cc(=O)oc3c2ccc2ccccc23)c(O)c1"
unit_string = "µg/mL"
result_number = 0.2


Next:
Exam item: Data request, read-out MIC, for `CCOC(=O)c1cc(O)c(OCc2cc(=O)oc3cc(C)cc(C)c23)c(O)c1`
Marked response: 0.2
